Each item that follows carries a reported IC50.
target: Phosphatidylinositol 4,5-bisphosphate 3-kinase catalytic subunit alpha isoform (Homo sapiens); assay: Inhibition of recombinant PI3K p110alpha using L-alpha-phosphatidylinositol as substrate and [gamma33P]ATP after 60 mins by thin layer chromatographic technique
Answer with a number only, understood to be in nM.

Record request: IC50 value, item Cc1ccc([N+](=O)[O-])cc1S(=O)(=O)N(C)/N=C/c1cnn2ccc(C#N)cc12 0.9

Param item: CCC/C(=N\NS(=O)(=O)c1cc([N+](=O)[O-])ccc1C)c1cnn2ccc(C#N)cc12 39

Also Cc1ccc([N+](=O)[O-])cc1S(=O)(=O)N(C)/N=C/c1cnn2ccc(Br)cc12 ? 3.8

What about Cc1ccc([N+](=O)[O-])cc1S(=O)(=O)N(C)/N=C/c1cnn2ccc(C(F)(F)F)cc12 ? 150

Entry Cc1ccc([N+](=O)[O-])cc1S(=O)(=O)N(C)/N=C/c1cnn2ccc(C3CC3)cc12 please 1100

Quick one: Cc1ccc([N+](=O)[O-])cc1S(=O)(=O)N(C)/N=C/c1cnn2ccccc12 960

Now the same for C/C(=N\NS(=O)(=O)c1cc([N+](=O)[O-])ccc1C)c1cnn2ccc(Br)cc12 30

----------
biological target: Phosphatidylinositol 4,5-bisphosphate 3-kinase catalytic subunit beta isoform (Homo sapiens); assay: Inhibition of recombinant PI3K p110beta using L-alpha-phosphatidylinositol as substrate and [gamma33P]ATP after 60 mins by thin layer chromatographic technique
Sequence (P42338 whole entry, canonical isoform): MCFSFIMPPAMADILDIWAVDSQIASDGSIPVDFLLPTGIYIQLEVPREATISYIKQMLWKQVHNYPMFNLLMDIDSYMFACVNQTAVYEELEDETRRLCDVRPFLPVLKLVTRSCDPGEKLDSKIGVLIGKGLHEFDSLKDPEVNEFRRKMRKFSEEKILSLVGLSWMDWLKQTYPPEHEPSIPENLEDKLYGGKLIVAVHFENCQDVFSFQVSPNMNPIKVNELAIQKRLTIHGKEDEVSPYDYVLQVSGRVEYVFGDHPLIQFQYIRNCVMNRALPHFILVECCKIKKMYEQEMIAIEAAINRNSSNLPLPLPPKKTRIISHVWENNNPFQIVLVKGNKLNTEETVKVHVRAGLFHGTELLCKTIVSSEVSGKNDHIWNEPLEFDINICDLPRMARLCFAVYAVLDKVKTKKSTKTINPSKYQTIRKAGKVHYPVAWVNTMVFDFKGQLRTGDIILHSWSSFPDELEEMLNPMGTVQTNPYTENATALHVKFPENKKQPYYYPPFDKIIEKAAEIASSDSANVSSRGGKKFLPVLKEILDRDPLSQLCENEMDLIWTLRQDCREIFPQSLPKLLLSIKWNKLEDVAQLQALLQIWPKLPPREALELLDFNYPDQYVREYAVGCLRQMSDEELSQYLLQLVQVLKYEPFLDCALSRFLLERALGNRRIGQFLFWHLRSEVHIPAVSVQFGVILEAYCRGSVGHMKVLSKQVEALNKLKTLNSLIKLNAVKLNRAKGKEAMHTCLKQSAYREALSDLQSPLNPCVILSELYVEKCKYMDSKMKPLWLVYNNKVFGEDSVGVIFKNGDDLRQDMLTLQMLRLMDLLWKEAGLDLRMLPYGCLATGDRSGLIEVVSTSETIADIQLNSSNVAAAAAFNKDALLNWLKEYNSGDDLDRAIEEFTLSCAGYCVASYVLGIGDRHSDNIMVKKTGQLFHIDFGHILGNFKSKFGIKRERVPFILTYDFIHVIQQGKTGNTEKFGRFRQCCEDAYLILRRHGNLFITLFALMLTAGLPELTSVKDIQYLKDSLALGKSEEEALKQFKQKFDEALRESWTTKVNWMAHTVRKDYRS
ASSAY_METRIC: IC50

Which IC50 value is on record for Cc1ccc([N+](=O)[O-])cc1S(=O)(=O)N(C)/N=C/c1cnn2ccc(C3CC3)cc12 ? > 1000 nM

Another: Cc1ccc([N+](=O)[O-])cc1S(=O)(=O)N(C)/N=C/c1cnn2ccccc12 > 10000 nM

What about this compound? CC/C(=N\N(C)S(=O)(=O)c1cc([N+](=O)[O-])ccc1C)c1cnn2ccc(C#N)cc12 > 1000 nM

# iterate: CC/C(=N\NS(=O)(=O)c1cc([N+](=O)[O-])ccc1C)c1cnn2ccc(C#N)cc12 > 1000 nM

Thanks! And Cc1ccc([N+](=O)[O-])cc1S(=O)(=O)N(C)/N=C/c1cnn2ccc(C(N)=O)cc12 ? > 1000 nM

Further cases:
Fill blank: measured IC50 of the compound Cc1ccc([N+](=O)[O-])cc1S(=O)(=O)N(C)/N=C/c1cnn2ccc(Br)cc12 is ____. 230 nM

Could you do the same for C#Cc1ccn2ncc(/C=N/N(C)S(=O)(=O)c3cc([N+](=O)[O-])ccc3C)c2c1 , please? 30 nM

Further, for C/C(=N\NS(=O)(=O)c1cc([N+](=O)[O-])ccc1C)c1cnn2ccc(Br)cc12 ? 480 nM

Follow-up item: CC(=O)Oc1ccn2ncc(/C=N/N(C)S(=O)(=O)c3cc([N+](=O)[O-])ccc3C)c2c1 > 1000 nM

----------
target: Phosphatidylinositol 4,5-bisphosphate 3-kinase catalytic subunit alpha isoform (Homo sapiens, UniProt P42336, H1047R); test: Inhibition of PI3K […] H1047R mutant-mediated PKB phosphorylation at Ser473 in human HCT116 cells after 15 mins by immunoblot analysis; format: cell-based, HCT-116
Sequence (P42336 whole entry H1047R, canonical isoform): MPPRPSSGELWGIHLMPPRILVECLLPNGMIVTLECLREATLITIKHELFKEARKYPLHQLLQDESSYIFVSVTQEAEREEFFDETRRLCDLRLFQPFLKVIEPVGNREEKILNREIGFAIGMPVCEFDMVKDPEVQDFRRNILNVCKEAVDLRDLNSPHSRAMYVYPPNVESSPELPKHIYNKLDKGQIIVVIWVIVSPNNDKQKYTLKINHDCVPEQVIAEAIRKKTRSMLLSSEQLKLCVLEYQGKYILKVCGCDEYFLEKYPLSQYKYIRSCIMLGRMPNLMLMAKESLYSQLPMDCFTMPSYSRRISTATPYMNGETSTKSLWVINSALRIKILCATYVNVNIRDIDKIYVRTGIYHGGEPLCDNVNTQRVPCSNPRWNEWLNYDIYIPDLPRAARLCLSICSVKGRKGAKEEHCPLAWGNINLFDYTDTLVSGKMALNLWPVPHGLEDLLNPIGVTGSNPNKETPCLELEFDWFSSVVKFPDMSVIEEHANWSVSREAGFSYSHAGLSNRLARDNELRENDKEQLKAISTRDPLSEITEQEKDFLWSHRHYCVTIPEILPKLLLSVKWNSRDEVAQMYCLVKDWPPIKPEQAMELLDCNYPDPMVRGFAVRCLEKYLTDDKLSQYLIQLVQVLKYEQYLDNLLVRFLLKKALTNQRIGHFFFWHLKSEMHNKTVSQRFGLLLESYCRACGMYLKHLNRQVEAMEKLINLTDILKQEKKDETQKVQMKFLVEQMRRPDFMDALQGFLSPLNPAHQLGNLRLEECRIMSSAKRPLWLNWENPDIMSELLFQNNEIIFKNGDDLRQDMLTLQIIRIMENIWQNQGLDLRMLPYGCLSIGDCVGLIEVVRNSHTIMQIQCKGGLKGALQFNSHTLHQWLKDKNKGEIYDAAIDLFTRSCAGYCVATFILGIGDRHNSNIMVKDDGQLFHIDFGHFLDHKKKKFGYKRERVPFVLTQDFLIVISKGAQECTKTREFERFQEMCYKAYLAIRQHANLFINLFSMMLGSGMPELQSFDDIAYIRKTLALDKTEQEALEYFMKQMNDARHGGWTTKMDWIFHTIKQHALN
ASSAY_METRIC: IC50 (nM)
Numbers only here, please. The scale is nM.

Data request, read-out IC50, for Cc1ccc([N+](=O)[O-])cc1S(=O)(=O)N(C)/N=C/c1cnn2ccc(C#N)cc12 23
